Values compiled from patent US20220169632A1.

Listed below: IC50 values for each entry.
# Tested on: NMNAT2-V5 polypeptide
# Protocol summary: NMNAT2-V5 polypeptide expression in transfected Beas2B cells (Western blot), dose dependent, 24 h
# Assay type: cell-based
# Test settings: Beas2B cells transfected with NMNAT2-V5 plasmid, compound for 24 hours, read-out: A: compound efficacy (IC50) for NMNAT2 activation

Consider the following illustrative entries.
[
  {
    "Molecule": "O=C(CSC1=Nc2ccccc2C2=NC(CCC(=O)N3CCN(c4ccccc4)CC3)C(=O)C12)NCC1CCCO1 (stereo not shown)",
    "IC50": "5 to 25 µM"
  },
  {
    "Molecule": "COc1ccc(OC)c(CCNC(=O)C(Cc2ccccc2)N2Cc3ccccc3C2)c1 (stereo not shown)",
    "IC50": "5 to 25 µM"
  },
  {
    "Molecule": "O=C(COc1ccc(F)cc1)N1CCN(Cc2cccc(-c3n[nH]c(-c4cccc(Cl)c4)n3)c2)CC1",
    "IC50": "< 5 µM"
  }
]

Assay NMNAT2-V5 polypeptide, sample "O=C(Cn1ccc2ccc(F)cc21)NCc1ccco1" , IC50 read: < 5 µM

###

# Tested on: NMNAT2-V5 polypeptide
# Protocol summary: NMNAT2-V5 polypeptide expression in transfected Beas2B cells (Western blot), dose dependent, 24 h
# Assay type: cell-based
# Test settings: Beas2B cells transfected with NMNAT2-V5 plasmid, compound for 24 hours, read-out: A: compound efficacy (IC50) for NMNAT2 activation
pIC50: −log10 of the molar value.
Listed below: pIC50 values for each entry.

Consider the following illustrative entries.
[
  {
    "Compound": "O=C(Cn1c(=O)[nH]c2ccccc2c1=O)NCc1ccncc1",
    "Result type": "pIC50",
    "Reading": "4.60 to 5.30"
  },
  {
    "Compound": "O=C(COCc1cc(-c2cccs2)sn1)NCCN1CCC(Cc2ccccc2)CC1 [BC18136]",
    "Result type": "pIC50",
    "Reading": "≤ 4.60"
  },
  {
    "Compound": "O=C(COc1nc2cc(C(=O)NCc3ccc(F)cc3)ccc2c(=O)n1CCOO)c1ccc(O)cc1",
    "Result type": "pIC50",
    "Reading": "> 5.30"
  }
]

Input "Cc1cc(C)n(CC(=O)NCc2ccco2)c(=O)c1C#N" . Output pIC50: > 5.30

Input O=C(COCc1cc(-c2cccs2)sn1)NCCN1CCC(Cc2ccccc2)CC1 [BC18115] . Output pIC50: 4.60 to 5.30

Input CC(=O)Nc1ccc(NC(=O)c2ccccc2OCc2nc(-c3ccc(C)cc3)ns2)cc1 [BC18137] . Output pIC50: 4.60 to 5.30

Input COc1ccc(OC)c(CCNC(=O)C(Cc2ccccc2)N2Cc3ccccc3C2=O)c1 (centres unmarked) [BC18138] . Output pIC50: 4.60 to 5.30

Input "Cc1n[nH]c(/C=C/c2ccc(N)cc2)c1S(=O)(=O)N1CCC(C(=O)N2CCN(Cc3ccc4c(c3)OCO4)CC2)CC1" . Output pIC50: > 5.30

Input "O=C(CCc1nnc2n(Cc3ccccc3)c(=O)c3ccccc3n12)N1CCN(CCOc2ccc(Cl)cc2)CC1" . Output pIC50: > 5.30

Input COc1ccc(OC)c(CCNC(=O)C(Cc2ccccc2)N2Cc3ccccc3C2=O)c1 (centres unmarked) [BC18133] . Output pIC50: 4.60 to 5.30

Input "N#Cc1nc(-c2ccc(COc3ccccc3)s2)sc1OCCc1ccc(ON)cc1" . Output pIC50: ≤ 4.60

Input CCn1cc(C(=O)NC(C)c2ccc3c(c2)OCCO3)c(=O)c2cc(S(=O)(=O)N3CCc4ccccc4C3)ccc21 (centres unmarked) . Output pIC50: 4.60 to 5.30

Input COc1cccc(NS(=O)(=O)c2ccc3[nH]cc(C(=O)NC(C)c4ccc5c(c4)OCCO5)c(=O)c3c2)c1 (centres unmarked) . Output pIC50: ≤ 4.60

Input "O=C(Cn1ccc2ccc(F)cc21)NCc1ccccn1" . Output pIC50: 4.60 to 5.30
